Each recorded value in this set is attributed to PubChem BioAssay (NCI).

- System: SNB-75 CNS
- assay_procedure: NCI-60 one-dose screen, 48 h
- condition_info: 10 µM
Compounds without any hit were thinned out: in the full panel of roughly 83,000, 20% have a hit. Activity calls are given as the source filed them. The calls were made as follows: active = growth percent below 10; inactive = the rest.
Labels: active, inactive

INSERT INTO measurements (compound, system_under_test, classification) VALUES
  ('NCCNc1ccc2cc(-c3nc4ccccc4[nH]3)c(=O)oc2c1', 'SNB-75 CNS', 'inactive'),
  ('CC(C)c1[nH]nc2c(NCc3ccc(-c4ccccn4)cc3)nc(SCCN)nc12', 'SNB-75 CNS', 'active'),
  ('CCOC(=S)Sc1ccc([N+](=O)[O-])cc1[N+](=O)[O-]', 'SNB-75 CNS', 'inactive'),
  ('CCNC1(NC#N)CCCCC1', 'SNB-75 CNS', 'inactive'),
  ('CC(C)c1[nH]nc2c(NCc3ccc(-c4ccccn4)cc3)nc(SCCN(C)C)nc12', 'SNB-75 CNS', 'active'),
  ('CCCOCC(O)CNCCN (stereo unspecified)', 'SNB-75 CNS', 'inactive');

----------
Below, each of the molecules is paired with its reported growth value.
- System: HCT-116 colon
- assay_procedure: NCI-60 one-dose screen, 48 h (100 = growth as untreated, 0 = no growth, -100 = all killed)
- condition_info: 10 µM
The panel holds about 83,000 compounds, 20% with a hit somewhere; the sample as a whole holds those more often. Active and inactive are the calls of the source. The calls were made as follows: active = growth percent below 10; inactive = the rest.
observation_type: growth

INSERT INTO measurements (molecule, system_under_test, observed_value) VALUES
  ('COc1cccc2c1O/C(=C\c1ncc([N+](=O)[O-])n1C)C2=O', 'HCT-116 colon', '-53.2% (active)'),
  ('CC(=O)[C@H]1CC[C@H]2[C@@H]3CC[C@@H]4CC=C(C=O)C[C@]4(C)[C@H]3CC[C@]12C', 'HCT-116 colon', '87% (inactive)'),
  ('Cc1cc(=O)oc2cc(OCc3cn(CC(O)CO)nn3)ccc12 (configuration not stated)', 'HCT-116 colon', '98.8% (inactive)'),
  ('Cc1ccc(S(=O)(=O)Nc2cccc3[nH]c(C(F)(F)F)nc23)cc1', 'HCT-116 colon', '23.8% (inactive)'),
  ('CCCCCC(=O)N1c2ccccc2NC2=C(C(=O)CC(c3ccc(OC)c(OC)c3)C2)C1c1ccc(C(F)(F)F)cc1 (configuration not stated)', 'HCT-116 colon', '39.3% (inactive)'),
  ('CC1(C)CC(=O)c2c(nc3ccc(Cl)cc3c2-c2ccccc2)C1', 'HCT-116 colon', '91% (inactive)'),
  ('COc1cc(C2c3cc4c(cc3C(O)C(CO)C2CO)OCO4)cc(OC)c1OC (configuration not stated)', 'HCT-116 colon', '23.1% (inactive)'),
  ('COc1ccccc1Cn1cc2c(c1-c1ccccc1)CCc1cnoc1-2', 'HCT-116 colon', '20.9% (inactive)'),
  ('Cc1cc(C)c2nc(C)c(C)[n+]([O-])c2c1', 'HCT-116 colon', '97.3% (inactive)'),
  ('CCCCCCN=C(N)CCCCCCCCCCC(N)=NCCCCCC', 'HCT-116 colon', '16.5% (inactive)'),
  ('CCCCCCCCCCCCCCCCn1cc[n+](C)c1', 'HCT-116 colon', '-87.2% (active)'),
  ('COc1ccc(/C(=C/c2cc(OC)c(OC)cc2[N+](=O)[O-])C(=O)O)cc1', 'HCT-116 colon', '116% (inactive)'),
  ('CN(C)c1ccc2c(c1)OC(N)=C(C#N)C2c1ccc2c(c1)CCCN2C (configuration not stated)', 'HCT-116 colon', '7.88% (active)'),
  ('N=C(N)c1ccc(-c2ccc(-c3ccccc3)s2)s1', 'HCT-116 colon', '-62% (active)'),
  ('COc1ccc(C(=O)/C=C/c2cc(-c3ccc(OC)c(OC)c3)n[nH]2)cc1OC', 'HCT-116 colon', '-89.2% (active)'),
  ('C[C@]12CC[C@H]3[C@@H](CCC4=CC(=O)CC[C@@]43C)[C@@H]1CC[C@@H]2c1csc(N)n1', 'HCT-116 colon', '32.7% (inactive)'),
  ('COc1ccc(-c2nsc3c2NC(=O)CC3c2cccc(Cl)c2)cc1 (configuration not stated)', 'HCT-116 colon', '23.8% (inactive)'),
  ('CCc1ccc(-c2nnc(COc3ccc(-c4nc5ccc(C)cc5[nH]4)cc3OC)o2)cc1', 'HCT-116 colon', '37.1% (inactive)'),
  ('N#C/C(=C\N1C(=O)/C(=C/c2cccc([N+](=O)[O-])c2)SC1=S)c1nc2ccccc2s1', 'HCT-116 colon', '81.6% (inactive)'),
  ('CCOC(=O)C1=C(Nc2ccc(OC)cc2)C(N)=NC1=N', 'HCT-116 colon', '34.5% (inactive)'),
  ('CCCOCC(O)CNCCN (configuration not stated)', 'HCT-116 colon', '104% (inactive)'),
  ('CC(C)C[C@H](NC(=O)Cn1ccc2ccccc2c1=O)B(O)O', 'HCT-116 colon', '32.3% (inactive)'),
  ('COC(=O)CCCCCCCCC(C)c1ccc(C(C)=O)cc1 (configuration not stated)', 'HCT-116 colon', '110% (inactive)'),
  ('COCCOC(=O)NC(=O)Nc1ccc(C(=O)c2ccc(Cl)cc2)cc1', 'HCT-116 colon', '30.5% (inactive)'),
  ('CNC(=O)c1cc(Oc2ccc(NC(=O)Nc3ccc(Cl)c(C(C)(C)C)c3)c(F)c2)ccn1', 'HCT-116 colon', '19.7% (inactive)'),
  ('COc1ccc(-c2nnc(COc3ccc(NC(=O)Nc4cccc(C(F)(F)F)c4)cc3F)o2)cc1', 'HCT-116 colon', '56.7% (inactive)'),
  ('COCCOC(=O)NC(=O)Nc1ccc(/C(=N/O)c2ccc(Cl)cc2)cc1', 'HCT-116 colon', '4.17% (active)'),
  ('CCCCCCCCCCN=C(c1ccc(N(C)C)cc1)c1ccc(N(C)C)cc1', 'HCT-116 colon', '15.3% (inactive)'),
  ('COC(=O)[C@]12CC[C@@H](C)[C@H](C)[C@@H]1C1=CC[C@@H]3[C@@]4(C)C/C(=N\O)[C@H](O)[C@@]5(C)COC(=C45)C[C@@]3(C)[C@]1(C)CC2', 'HCT-116 colon', '-84.8% (active)'),
  ('COc1cc(-c2nc3ccc(C)cc3[nH]2)ccc1OCc1nnc(-c2ccc(CC(C)C)cc2)o1', 'HCT-116 colon', '97.1% (inactive)'),
  ('CCOC(=O)c1sc(NC(=O)c2cc(OC)c(OC)c(OC)c2)nc1C', 'HCT-116 colon', '111% (inactive)'),
  ('CC(=O)n1nc(C(=O)OC(C)(C)C)c2cc(F)c(F)cc21', 'HCT-116 colon', '95% (inactive)'),
  ('O=C1/C(=C/c2ccc(O)cc2)Cc2ccc(Cl)cc21', 'HCT-116 colon', '88.4% (inactive)'),
  ('NS(=O)(=O)c1ccc(N2N=C(c3ccc(-c4ccccc4)cc3)CC2c2ccc(Cl)cc2)cc1 (configuration not stated)', 'HCT-116 colon', '50.4% (inactive)'),
  ('CCCCCC(CCC)COC(=O)c1ccc(OC)cc1 (configuration not stated)', 'HCT-116 colon', '100% (inactive)'),
  ('CCCCCCCOc1cccc(/C=C2/C(=O)N=C3SCCCN32)c1', 'HCT-116 colon', '39.9% (inactive)'),
  ('CCc1c(C(=O)NCc2c(O)ccc3cccc(O)c23)[nH]c(C)c1C(C)=O', 'HCT-116 colon', '42.3% (inactive)'),
  ('O=C(CSc1nnc(-c2ccc(Cl)cc2)o1)c1ccccc1', 'HCT-116 colon', '92.2% (inactive)'),
  ('COc1ccc2nc(/C=C/c3ccc(N(C)C)cc3)sc2c1', 'HCT-116 colon', '105% (inactive)'),
  ('COCc1cc2c(cc1Br)OCO2', 'HCT-116 colon', '98.6% (inactive)'),
  ('O=NN(CCCl)C(=O)NCc1ccc(-c2ccc(CNC(=O)N(CCCl)N=O)cc2)cc1', 'HCT-116 colon', '89.2% (inactive)'),
  ('COC(=O)[C@]12CC[C@@H](C)[C@H](C)[C@@H]1C1=CC[C@@H]3[C@@]4(C)CC(=O)[C@H](O)[C@@]5(C)COC(=C45)C[C@@]3(C)[C@]1(C)CC2', 'HCT-116 colon', '-76.2% (active)');

----------
- System: NCI-H226 lung
- assay_procedure: NCI-60 one-dose screen, 48 h (100 = growth as untreated, 0 = no growth, -100 = all killed)
- condition_info: 10 µM
- Experimental: Growth inhibition of the NCI-H226 human Non-Small Cell Lung tumor cell line is measured as a screen for anti-cancer activity. Cells are grown in 96 well plates and exposed to the test compound for 48 hours. Compounds are tested at a single concentration, which is 10^-5 M for most compounds. The reported endpoint is percent growth (GI% or GIPRCNT), where numbers from 0 - 100% represent growth inhibition, and numbers from -100% - 0 represent cell death. […]
Compounds without any hit were thinned out: in the full panel of roughly 83,000, 20% have a hit. Active and inactive are the calls of the source. The calls were made as follows: active = growth percent below 10; inactive = the rest.
observation_type: growth

INSERT INTO results (compound, observation_type, observed_value) VALUES
  ('O=C(O)c1ccccc1C(=O)c1cccc2c(F)cccc12', 'growth', '97.4% (inactive)'),
  ('O=C(COc1ccc(Cl)cc1Cl)Oc1coc(CSc2nc3ccccc3s2)cc1=O', 'growth', '93.8% (inactive)'),
  ('COc1ccc(C2CC(c3ccc(-c4ccccc4)cc3)=NN2c2ccc(S(N)(=O)=O)cc2)cc1 (stereo unspecified)', 'growth', '74.9% (inactive)'),
  ('S=C(Cc1ccc(-c2ccccc2)cc1)N1CCOCC1', 'growth', '91.7% (inactive)'),
  ('O=CNc1c(Cl)cc2c(c1Cl)Cc1cc([N+](=O)[O-])ccc1-2', 'growth', '90.1% (inactive)'),
  ('COc1ccc(Cn2cc3c(c2-c2cc(OC)c(OC)c(OC)c2)CCc2cnoc2-3)cc1N', 'growth', '12.7% (inactive)');
